meta.source: patent US20160002204A1

Please respond with reported pIC50 for every item in the list.
# system name: GLS1 (purified recombinant human GAC) (Homo sapiens, UniProt O94925)
# Sequence (O94925 55-598 isoform O94925-3 limits assumed): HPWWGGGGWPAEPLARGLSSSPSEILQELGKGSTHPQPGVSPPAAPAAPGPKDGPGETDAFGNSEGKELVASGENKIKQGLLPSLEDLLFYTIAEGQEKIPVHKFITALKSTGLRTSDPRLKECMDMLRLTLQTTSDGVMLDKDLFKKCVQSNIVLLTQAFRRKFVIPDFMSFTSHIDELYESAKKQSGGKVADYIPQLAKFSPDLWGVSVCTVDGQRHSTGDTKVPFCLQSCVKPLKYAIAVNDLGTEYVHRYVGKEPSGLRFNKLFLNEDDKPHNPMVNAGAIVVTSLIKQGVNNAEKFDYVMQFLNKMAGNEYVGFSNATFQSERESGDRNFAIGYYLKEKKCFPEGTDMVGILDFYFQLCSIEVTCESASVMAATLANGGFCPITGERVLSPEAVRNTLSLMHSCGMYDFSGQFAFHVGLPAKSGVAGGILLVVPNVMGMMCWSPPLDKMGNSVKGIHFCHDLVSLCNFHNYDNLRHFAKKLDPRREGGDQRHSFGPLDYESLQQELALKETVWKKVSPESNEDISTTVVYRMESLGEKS
# experiment summary: GLS1 enzymatic activity assay (dual-coupled, Amplex UltraRed/resorufin)
# Assay type: biochemical
pIC50: −log10 of the molar value.

// query # pIC50 lookup, item COC(=O)C1CCN(CC(=O)Nc2ccn(CCC(F)Cn3cc(C(=O)NCc4cccc(OC(F)(F)F)c4)nn3)c(=O)c2)CC1 (stereo not shown) [Example 273]
// result > 7.00

// query Name the reported pIC50 value associated with the molecule CC(C)(C)OC(=O)N1CCC(CC(=O)Nc2ccn(CCC(F)Cn3cc(C(=O)NCc4cccc(OC(F)(F)F)c4)nn3)c(=O)c2)CC1 (stereo not shown) [Example 219]
// result > 7.00

// query What does the data say about its pIC50? Entry: O=C(Cc1ccccc1)Nc1ccn(CCCCCc2nnc(NC(=O)Cc3ccccc3)s2)c(=O)n1 [Example 74]
// result 5.30 to 6.30

// query Give its pIC50 value. Item: O=C(Nc1ccn(CCCCc2nnc(C(=O)NCc3ccccc3)s2)c(=O)n1)OCc1ccccc1 [Example 122]
// result 6.30 to 7.00

// query So what does the record say about pIC50 for CC(=O)N1CCN(CC(=O)Nc2ccn(CCC(F)Cn3cc(C(=O)NCc4cccc(OC(F)(F)F)c4)nn3)c(=O)c2)CC1 (stereo not shown) [Example 229] ?
// result 6.30 to 7.00

// query Recorded pIC50 of O=C(CC1CCCC1)Nc1ccn(CCC(F)Cn2cc(C(=O)NCc3cccc(OC(F)(F)F)c3)nn2)c(=O)c1 (stereo not shown) [Example 220] , please.
// result > 7.00

// query For O=C(Cc1ccccc1)Nc1ccn(CCC(F)Cn2cc(C(=O)NCc3cccc(OC(F)(F)F)c3)nn2)c(=O)c1 (stereo not shown) [Example 134] , what is its reported pIC50?
// result > 7.00
